Exercise: for every item that follows, state its recorded %Inh.
system: NEK2; conditions: concentration: 1 μM, replicates: in singlicate; n = 1;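 also: KINOMEscan kinase panel screen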
Give bare numbers, in %.

molecule	%Inh, %
O=C(NCCCN1CCCC1=O)c1cnc(NCc2cc(Cl)ccc2Cl)nc1NC1CCNCC1	7
CNc1nccc(-c2c(-c3ccc(F)cc3)ncn2C2CCN(C)CC2)n1 [SB-222903]	0
Clc1cc(Nc2ncnc3cc[nH]c23)ccc1OCc1ccccn1	0
CSc1ccc(NC2=C(c3ccccc3Cl)C(=O)NC2=O)cc1 [SB-342411]	8

State the recorded %Inh for every item in the following list.
1. Cc1ccc(O)cc1Nc1cc(C(F)(F)F)nc2ccc(-c3ccncc3)cc12 [GW630823]
2. NC(=O)c1sc(-n2cnc3ccccc32)cc1OCc1ccccc1F [GSK1024306]
3. Nc1nc(-c2ccccn2)c(-c2ccnc3ccccc23)s1 [GW548057]
4. Cn1ccc2ncnc(Oc3ccc(NC(=O)Nc4cccnc4)c(Cl)c3)c21
5. CSc1nn2c(=O)cc(N3CCOCC3)nc2n1Cc1cccc(Cl)c1Cl [GSK2347225]
6. C[C@H]1CC[C@@H](C(=O)Nc2ccccc2)CN1c1cc(-c2ccc3c(N)n[nH]c3c2)nc(N)n1 [GSK2283293]
7. CCn1c(-c2ccncc2)nc2cnccc21 [SB-735216]

1: 2; 2: 0; 3: 0; 4: 0; 5: 0; 6: 0; 7: 8

* * *

test system: PIK3CB; settings: concentration: 1 μM, replicates: in singlicate; n = 1
Exercise: for every item that follows, state its recorded %Inh.
Answers are plain numbers, in %.

compound	system	result unit	%Inh
COc1ccc(NC(=O)Nc2ccc(C)c(-c3ccc(C(=O)Nc4ccncc4)cc3)c2)cc1	PIK3CB	%	0

State the recorded %Inh for every item in the following list.
1. COc1ccc(NC(=O)c2ccc(-c3cc(-c4nnc(C)o4)ccc3C)cc2)cc1
2. O=C(NCCCN1CCCC1=O)c1cnc(NCc2cc(Cl)ccc2Cl)nc1NC1CCNCC1
3. CCC(CC)(CC)n1cnc2c(N)ncnc21
4. CNc1nccc(-c2c(-c3ccc(F)cc3)ncn2CCCN2CCOCC2)n1
5. OCCOCCn1ccc2ncnc(Nc3ccc(Oc4cccc(Cl)c4)c(Cl)c3)c21
6. Nc1nc(-c2ccccn2)c(-c2ccnc3ccccc23)s1
7. Fc1cccc(COc2ccc(Nc3ncnc4sc(-c5ccc[nH]5)cc34)cc2Cl)c1
8. Cl.Fc1ccccc1COc1ccc(Nc2ncnc3ccc(-c4nnc(C(F)(F)F)o4)cc23)cc1Cl

[0, 0, 27, 6, 0, 14, 1, 0]

State the recorded %Inh for every item in the following list.
1. Fc1cccc(COc2ccc(Nc3ncnc4nn5ccccc5c34)cc2Cl)c1
2. C[C@@H]1CCN(C(=O)CO)C[C@@H]1N(C)c1ncnc2[nH]ccc12
3. Cl.c1ccc(Cn2ccc3cc(Nc4ncnc5ccccc45)ccc32)cc1

41
0
0

State the recorded %Inh for every item in the following list.
1. O=C(Nc1ccccc1F)NC1CCN(c2ccnc(Nc3ccc(F)cc3)n2)C1 (stereo not shown)
2. FC(F)(F)c1ccc(-c2nn3ncccc3c2-c2ccnc(Nc3cccc(C(F)(F)F)c3)n2)cc1

1: 0; 2: 0

State the recorded %Inh for every item in the following list.
1. C[C@H]1CC[C@@H](C(=O)Nc2ccccc2)CN1c1cc(-c2ccc3c(N)n[nH]c3c2)nc(N)n1
2. Oc1ccc2ncnc(Nc3ccc(OCc4ccccc4)cc3)c2c1
3. FC(F)(F)c1ccc(-c2cc(-c3c[nH]nc3-c3ccccn3)ccn2)cc1
4. Clc1ccc(-c2cc(-c3c[nH]nc3-c3ccccn3)ccn2)cc1
5. Cn1ccc2ncnc(Oc3ccc(NC(=O)Nc4cccnc4)c(Cl)c3)c21

0
0
0
0
3

* * *

tested on: STK36; conditions: concentration: 1 μM, replicates: in singlicate; n = 1
attribute measured: %Inh

Consider the reported %Inh for these compounds:
item smiles	test value
CNc1nccc(-c2c(-c3ccc(F)cc3)ncn2CCCN2CCOCC2)n1	0%
Clc1cccc(-c2nc(Nc3ccncc3)c3ccccc3n2)c1	3%
CN1c2ccc(-c3ccc(C(=O)NCCO)cc3)cc2-c2[nH]ncc2S1(=O)=O	30%
C[C@@H]1CCN(C(=O)CO)C[C@@H]1N(C)c1ncnc2[nH]ccc12	0%

State the recorded %Inh for every item in the following list.
1. Oc1ccc2ncnc(Nc3ccc(OCc4ccccc4)cc3)c2c1
2. O=C(NCCCN1CCCC1=O)c1cnc(NCc2cc(Cl)ccc2Cl)nc1NC1CCNCC1
3. Cc1cc(N2CCC(NS(=O)(=O)c3ccc(F)cc3)CC2)nc(Nc2cccc(C#N)c2)n1.O=C(O)C(F)(F)F
4. Fc1ccc(Nc2nccc(-c3c(-c4ccc(Cl)cc4)nn4ncccc34)n2)cc1F
5. COc1cc2c(Nc3cccc(NC(=O)c4ccccc4)c3)ncnc2cc1OCCCN1CCOCC1
6. FC(F)(F)c1ccc(-c2cc(-c3c[nH]nc3-c3ccccn3)ccn2)cc1
7. CSc1nn2c(=O)cc(N3CCOCC3)nc2n1Cc1cccc(Cl)c1Cl
8. COC(=O)c1cccc(NC(=O)NCCNc2ccnc(Nc3ccc(F)cc3)n2)c1

1: 0%; 2: 0%; 3: 0%; 4: 8%; 5: 9%; 6: 0%; 7: 28%; 8: 0%

* * *

Exercise: for every item that follows, state its recorded %Inh.
system: PRKX; settings: concentration: 1 μM, replicates: in singlicate; n = 1
Numbers only, in %.

Consider the reported %Inh for these molecules:
molecule	test value
COc1cc2c(Nc3cccc(NC(=O)c4ccccc4)c3)ncnc2cc1OCCCN1CCOCC1	7
FC(F)(F)c1ccc(-c2cc(-c3c[nH]nc3-c3ccccn3)ccn2)cc1	12
CC(C)(C)OC(=O)NC1CCCN(c2cc(-c3ccc4c(N)n[nH]c4c3)nc(N)n2)C1 (stereo not drawn)	21
FC(F)(F)c1cc(Nc2nccc(-c3c(-c4ccc(Cl)cc4)nn4ncccc34)n2)ccc1Cl	0
O=c1cc(N2CCOCC2)nc2n(Cc3cccc(Cl)c3)ccn12	33

State the recorded %Inh for every item in the following list.
1. Nc1nc(-c2ccccn2)c(-c2ccnc3ccccc23)s1
2. Cl.Cl.c1ccc(-c2cc3ccncc3cc2OC2CCNCC2)cc1
3. CNc1nccc(-c2c(-c3ccc(F)cc3)ncn2CCCN2CCOCC2)n1
4. CCC(CC)(CC)n1cnc2c(N)ncnc21
5. NC(=O)c1sc(-n2cnc3ccccc32)cc1OCc1ccccc1F
6. CSc1nn2c(=O)cc(N3CCOCC3)nc2n1Cc1cccc(Cl)c1Cl

1. 0
2. 34
3. 0
4. 0
5. 3
6. 23

State the recorded %Inh for every item in the following list.
1. Clc1cccc(-c2nc(Nc3ccncc3)c3ccccc3n2)c1
2. CNc1nccc(-c2c(-c3ccc(F)cc3)ncn2C2CCN(C)CC2)n1
3. Cn1cc(-c2ccc3c(c2)CCN3C(=O)Cc2cccc(C(F)(F)F)c2)c2c(N)ncnc21
4. CS(=O)(=O)CCNCc1ccc(-c2ccc3ncnc(Nc4ccc(OCc5ccccc5)c(Cl)c4)c3c2)o1.Cl
5. O=C(CCO)NCCn1ccc2ncnc(Nc3ccc(Oc4cccc(C(F)(F)F)c4)c(Cl)c3)c21
6. Cl.O=S(=O)(c1cccc(F)c1)c1ccc(Nc2ncnc3cc(Br)sc23)cc1Cl
7. Cl.Cn1ccc(-c2cccc(Nc3ccnc4cc(-c5nccs5)ccc34)c2)n1

12
0
16
17
0
24
0

* * *

Exercise: for every item that follows, state its recorded %Inh.
system: TTK; conditions: concentration: 1 μM, replicates: in singlicate; n = 1
Give bare numbers, in %.

molecule	%Inh / %
Cn1ccc2ncnc(Oc3ccc(NC(=O)Nc4cccnc4)c(Cl)c3)c21	1

State the recorded %Inh for every item in the following list.
1. Cl.O=S(=O)(c1cccc(F)c1)c1ccc(Nc2ncnc3cc(Br)sc23)cc1Cl
2. Cl.Cl.c1ccc(-c2cc3ccncc3cc2OC2CCNCC2)cc1
3. CS(=O)(=O)CCNCc1nc(-c2ccc3ncnc(Nc4ccc(OCc5cccc(F)c5)c(Cl)c4)c3c2)cs1.Cl
4. CS(=O)(=O)CCNCc1ccc(-c2ccc3ncnc(Nc4ccc(OCc5ccccc5)c(Cl)c4)c3c2)o1.Cl
5. Nc1n[nH]c2nnc(-c3ccccc3)cc12
6. CC(C)N1CCC(n2cnc(-c3ccc(F)cc3)c2-c2ccnc(N)n2)CC1

[17, 0, 0, 18, 0, 14]

State the recorded %Inh for every item in the following list.
1. CNc1nccc(-c2c(-c3ccc(F)cc3)ncn2CCCN2CCOCC2)n1
2. Cl.c1ccc(Cn2ccc3cc(Nc4ncnc5ccccc45)ccc32)cc1
3. Fc1cccc(COc2ccc(Nc3ncnc4nn5ccccc5c34)cc2Cl)c1

1. 0
2. 9
3. 10

State the recorded %Inh for every item in the following list.
1. N#Cc1ccc(Oc2ccc(Nc3ncnc4cc[nH]c34)cc2Cl)cc1
2. Cc1ccc(O)cc1Nc1cc(C(F)(F)F)nc2ccc(-c3ccncc3)cc12

1. 16
2. 3

State the recorded %Inh for every item in the following list.
1. Cc1ccc(C)c(NC(=O)NCCNc2ccnc(Nc3ccc(F)cc3)n2)c1
2. O=C(Nc1ccccc1)Nc1ccc(Oc2ccc3nccn3n2)cc1
3. COc1ccc(Nc2nccc(N3CCC(NC(=O)c4cccc(NC(C)=O)c4)C3)n2)cc1 (stereo not drawn)
4. O=C(Nc1n[nH]c2nc(-c3ccco3)c(Br)cc12)c1ccc(CN2CCCC2)cc1.O=C(O)[C@H](O)[C@@H](O)C(=O)O
5. Fc1ccc(Nc2nccc(-c3c(-c4ccc(Cl)cc4)nn4ncccc34)n2)cc1F
6. NC(=O)c1sc(-n2cnc3ccccc32)cc1OCc1ccccc1F

1: 0; 2: 0; 3: 8; 4: 0; 5: 8; 6: 12
